# Test system: TK-10 renal
# assayText: NCI tumour cell line growth inhibition, 48 h; in the data active means GI50 below about 0.43 µM; inactive means the rest
Return exactly one item of 1 (yes) (active), 0 (no) (inactive)

Use the examples below as a reference point.
# structureAsSmiles, group
rows = [
    ("O=c1nc2n(-c3cccc(Cl)c3)c3ccc([N+](=O)[O-])cc3cc-2c(=O)[nH]1", "0 (no)"),
    ("Cc1cccc2cc(/C=C/C(=O)/C=C/c3ccc(Cl)cc3)c(=O)[nH]c12", "0 (no)"),
    ("CC(C)=CCC/C(C)=C/CC/C(C)=C/CSC[C@H](NC(=O)CCCCCN1CCN(C)CC1)C(=O)NC1CCCCCC1", "0 (no)"),
]

// next entry
Query: # lookup: test call for CNC(=O)Oc1cc(C(C)C)ccc1Sc1ccc(C(C)C)cc1OC(=O)NC
Result: 0 (no)

* * *

# Test system: RPMI-8226 leukemia
# assayText: NCI tumour cell line growth inhibition, 48 h
assayMetric: TGI (µM)
Give bare numbers, in µM.

Solved entries (count: 4):
# compound, assayMetric, reading
records = [
    ("COc1ccc(-c2nc3sc(-c4cc(OC)c(OC)c(OC)c4)nn3c2/C=C2/C(=O)Nc3ccc(F)cc32)cc1", "TGI", 64.6),
    ("CN(C)CCNC(=O)c1cc2c3cc(Cl)ccc3[nH]c2c2ncccc12", "TGI", 3.84),
    ("CC1=C(O)C(=O)C=C2C1=CC=C1[C@@]2(C)CC[C@@]2(C)C3C[C@@H](C)C(=O)[C@@H](O)[C@]3(C)CC[C@]12C (stereo partly drawn)", "TGI", 5.08),
    ("CS(=O)(=O)OCCN(CCOS(C)(=O)=O)c1ccc(C=Nc2ccc(-c3csc(COc4ccccc4)n3)cc2)cc1", "TGI", 67.5),
]

Value sought for every listed compound: TGI.
1. COc1cccc2c1nc(C(F)F)n2-c1nc(-c2ccc(NS(=O)(=O)CCN(C)C)cc2)nc(N2CCOCC2)n1
2. CNC(=O)Oc1cc(C(C)C)ccc1Sc1ccc(C(C)C)cc1OC(=O)NC
3. CN1CCN(Cn2nc(COc3ccccc3Cl)n(/N=C/c3ccc(-c4ccc(Cl)cc4Cl)o3)c2=S)CC1
4. COc1ccc(C2=NN(C(N)=S)C(c3ccc4c(c3)OCO4)C2)cc1 (stereo not drawn)

Result:
1. 2.41
2. 7.48
3. 83.8
4. 6.33

Value sought for every listed compound: TGI.
1. Cc1c2cnccc2c(C)c2c1c1ccccc1n2CCOC(=O)c1ccccc1
2. C/C(=N/NC(=O)c1ccccc1S(N)(=O)=O)C(CN1CCCCC1)C(C1=C(O)C2C=CC=CC2OC1=O)c1ccccc1 (stereo not drawn)
3. C=C=C[P+](c1ccccc1)(c1ccccc1)c1ccccc1
4. ClC1=C(Cl)C(Cl)(C2(Cl)C(Cl)=C(Cl)C(Cl)=C2Cl)C(Cl)=C1Cl
5. C=C(CO)C(=O)OC1CC(=C)C2CC(O)C(C)C2C2OC(=O)C(=C)C12 (stereo not drawn)
6. CC(=O)/C(=C\c1ccc(Cl)cc1)c1ccccc1
7. C/C(=C\C(=O)O[C@H]1[C@@H]2[C@H](C)CC[C@H]2[C@]2(C)O[C@@]1(C1CCCCC1)C[C@H]2OC(=O)CO)c1ccccc1

Result:
42
79
6.37
0.696
58.1
25.9
16.6

Query: What does the data say about its TGI? Entry: O=C1CSC(c2c[nH]c3ccccc23)N1c1cccc(Cl)c1 (stereo not drawn)
Result: 54.7

Hey, just so you know, these numbers are from PubChem BioAssay (NCI).
